Data provenance: ChEMBL document CHEMBL5325432

experiment: Selectivity index, ratio of IC50 for cytotoxicity against African green monkey Vero cells to IC50 for antiparasitic activity against Trypanosoma cruzi epimastigotes assessed as parasite growth inhibition; type: toxicity, cell-based; conditions: read-out: Ratio IC50
OBSERVABLE: selectivity ratio

Would you please look over these solved cases?
CCCCCCCCn1cc(CN[C@@H](C)[C@H]2CC[C@H]3[C@@H]4CC=C5C[C@@H](O)CC[C@]5(C)[C@H]4CC[C@]23C)nn1 = > 5.02
C[C@@H](NCc1cn(CCCc2ccccc2)nn1)[C@H]1CC[C@H]2[C@@H]3CC=C4C[C@@H](O)CC[C@]4(C)[C@H]3CC[C@]12C = > 1.45
C[C@@H](NCc1cn(Cc2ccccc2)nn1)[C@H]1CC[C@H]2[C@@H]3CC=C4C[C@@H](O)CC[C@]4(C)[C@H]3CC[C@]12C = > 4.14

Tell me the measured selectivity ratio of "CCCCCCCCn1cc(CNC[C@](C)(O)[C@H]2CC[C@H]3[C@@H]4CC=C5C[C@@H](O)CC[C@]5(C)[C@H]4CC[C@@]32C)nn1" , please.
> 1.14

Cool, now "CC(=O)O[C@H]1CC[C@@]2(C)C(=CC[C@H]3[C@@H]4CC[C@H]([C@H](C)NCc5cn(CCCc6ccccc6)nn5)[C@@]4(C)CC[C@@H]32)C1"
> 1.42

What do you get for "CCOC(=O)Cn1cc(CN[C@@H](C)[C@H]2CC[C@H]3[C@@H]4CC=C5C[C@@H](OC(C)=O)CC[C@]5(C)[C@H]4CC[C@]23C)nn1" ?
> 1.22

Query "C[C@H](NCc1cn(Cc2ccccc2)nn1)[C@H]1CC[C@H]2[C@@H]3CC=C4C[C@@H](O)CC[C@]4(C)[C@H]3CC[C@]12C" next
> 31

One more compound: "C[C@H](NCc1cn(CCCc2ccccc2)nn1)[C@H]1CC[C@H]2[C@@H]3CC=C4C[C@@H](O)CC[C@]4(C)[C@H]3CC[C@]12C"
> 4.36

Can you handle "CC(C)=CCC/C(C)=C/Cn1cc(CNC[C@](C)(O)[C@H]2CC[C@H]3[C@@H]4CC=C5C[C@@H](O)CC[C@]5(C)[C@H]4CC[C@@]32C)nn1" next?
> 0.98

Now consider "CCCCCc1cn(C[C@](C)(O)[C@H]2CC[C@H]3[C@@H]4CC=C5C[C@@H](O)CC[C@]5(C)[C@H]4CC[C@@]32C)nn1" and answer again.
> 1.68

Try "CC(=O)O[C@H]1CC[C@@]2(C)C(=CC[C@H]3[C@@H]4CC[C@H]([C@H](C)NCc5cn(Cc6ccccc6)nn5)[C@@]4(C)CC[C@@H]32)C1" next.
> 3.69

Try this compound next: "CC(C)=CCC/C(C)=C/Cn1cc(CN[C@@H](C)[C@H]2CC[C@H]3[C@@H]4CC=C5C[C@@H](O)CC[C@]5(C)[C@H]4CC[C@]23C)nn1"
> 2.95

Now consider "C[C@]12CC[C@H]3[C@@H](CC=C4C[C@@H](O)CC[C@@]43C)[C@@H]1CC[C@@H]2[C@@](C)(O)CNCc1cn(Cc2ccccc2)nn1" .
> 1.16
